# Test target: PI3Kα (p110α/p85α) (Homo sapiens (Human))
# Sequence (P42336 whole entry): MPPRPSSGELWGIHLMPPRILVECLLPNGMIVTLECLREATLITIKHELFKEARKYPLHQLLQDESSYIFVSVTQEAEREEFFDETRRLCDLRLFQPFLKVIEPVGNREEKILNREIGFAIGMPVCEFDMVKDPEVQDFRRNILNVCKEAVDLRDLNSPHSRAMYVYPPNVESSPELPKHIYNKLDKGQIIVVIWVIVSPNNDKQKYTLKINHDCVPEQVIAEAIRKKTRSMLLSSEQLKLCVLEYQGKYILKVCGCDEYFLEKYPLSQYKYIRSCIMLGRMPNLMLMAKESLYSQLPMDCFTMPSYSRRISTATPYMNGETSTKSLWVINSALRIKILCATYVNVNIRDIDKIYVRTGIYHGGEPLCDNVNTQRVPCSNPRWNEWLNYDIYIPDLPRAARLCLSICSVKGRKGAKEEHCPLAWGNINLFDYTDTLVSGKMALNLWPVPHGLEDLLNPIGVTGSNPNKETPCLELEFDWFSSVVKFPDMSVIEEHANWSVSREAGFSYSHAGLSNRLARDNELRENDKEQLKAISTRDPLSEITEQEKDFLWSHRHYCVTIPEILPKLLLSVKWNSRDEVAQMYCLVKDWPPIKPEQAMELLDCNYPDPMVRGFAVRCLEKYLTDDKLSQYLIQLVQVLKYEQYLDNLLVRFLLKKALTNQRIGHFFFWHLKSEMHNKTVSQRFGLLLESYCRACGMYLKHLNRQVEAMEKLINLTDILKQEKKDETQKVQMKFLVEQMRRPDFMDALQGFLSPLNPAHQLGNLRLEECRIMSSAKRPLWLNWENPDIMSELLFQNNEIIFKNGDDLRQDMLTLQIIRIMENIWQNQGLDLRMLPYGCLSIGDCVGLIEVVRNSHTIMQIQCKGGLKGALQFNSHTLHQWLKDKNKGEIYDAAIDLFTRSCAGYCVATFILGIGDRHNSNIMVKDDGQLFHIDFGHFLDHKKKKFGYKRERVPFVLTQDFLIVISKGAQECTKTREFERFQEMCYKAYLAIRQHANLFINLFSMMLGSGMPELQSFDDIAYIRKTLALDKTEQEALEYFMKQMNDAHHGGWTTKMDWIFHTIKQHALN
# Sequence (P27986 whole entry partner): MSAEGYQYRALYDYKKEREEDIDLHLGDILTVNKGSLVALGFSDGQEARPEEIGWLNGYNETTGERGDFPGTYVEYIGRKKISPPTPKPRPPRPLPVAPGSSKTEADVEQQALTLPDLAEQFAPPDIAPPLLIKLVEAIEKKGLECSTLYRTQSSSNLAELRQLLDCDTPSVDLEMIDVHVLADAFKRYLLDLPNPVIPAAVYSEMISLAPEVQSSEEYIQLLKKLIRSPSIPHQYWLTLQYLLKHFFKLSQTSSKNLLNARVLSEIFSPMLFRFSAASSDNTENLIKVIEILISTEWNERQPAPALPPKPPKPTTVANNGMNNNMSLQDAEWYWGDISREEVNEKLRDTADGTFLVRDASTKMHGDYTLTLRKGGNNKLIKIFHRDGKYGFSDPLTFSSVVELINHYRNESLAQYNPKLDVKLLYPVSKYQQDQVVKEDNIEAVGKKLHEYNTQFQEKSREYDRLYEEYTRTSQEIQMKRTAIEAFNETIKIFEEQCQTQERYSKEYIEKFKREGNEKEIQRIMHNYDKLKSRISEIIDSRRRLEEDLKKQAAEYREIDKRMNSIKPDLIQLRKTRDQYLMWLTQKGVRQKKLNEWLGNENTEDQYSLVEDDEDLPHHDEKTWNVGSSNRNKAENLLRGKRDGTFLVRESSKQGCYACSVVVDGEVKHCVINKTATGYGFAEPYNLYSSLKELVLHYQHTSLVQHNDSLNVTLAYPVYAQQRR
# Measurement description: cell-free PI3K HTRF assay, PI3Kα
# Type: biochemical
# Condition summary: ratio of IC50 against PI3Kα related to PI3Kδ; 10-dose, 3-fold serial dilution starting at 10 μM
Mark TRUE only for Ratio (α/δ) values smaller than 700; exact matches and larger values are FALSE.

Exercise: Hello, is Ratio (α/δ) of the following compound strictly smaller than 700? Nc1nc(N2CCCC2c2cc3ccc(F)cc3nc2N2CCCCC2)c2nc[nH]c2n1 (centres unmarked)
Solution: FALSE

Exercise: Hello, is Ratio (α/δ) of the following compound strictly smaller than 700? Fc1ccc2cc(C3CCCN3c3ncnc4[nH]cnc34)c(N3CCCCC3)nc2c1 (centres unmarked)
Solution: FALSE

Exercise: Hello, is Ratio (α/δ) of the following compound strictly smaller than 700? Fc1ccc2cc(C3CCCN3c3ncnc4[nH]cnc34)c(-c3ccccn3)nc2c1 (centres unmarked)
Solution: FALSE

Exercise: Hello, is Ratio (α/δ) of the following compound strictly smaller than 700? N#Cc1c(N)ncnc1N1CCCC1c1cc2ccc(F)cc2nc1N1CCOCC1 (centres unmarked)
Solution: FALSE

Exercise: Hello, is Ratio (α/δ) of the following compound strictly smaller than 700? Cc1cccc2cc([C@@H]3CCCN3c3ncnc4[nH]cnc34)c(-c3ccccc3)nc12
Solution: TRUE

Exercise: Hello, is Ratio (α/δ) of the following compound strictly smaller than 700? Cc1cccc2cc([C@@H]3CCCN3c3ncnc(N)c3C#N)c(N3CCOCC3)nc12
Solution: FALSE

The measurements presented in this section are drawn from patent US9637488B2.
